These data points were gathered from a melting point compilation (Tetko et al.; mined from patent text by program, amines drawn as free bases though some values may be those of a salt).

metric: melting point

# compound, result
data = [
    ("CCOCc1cc2cc(Br)ccc2oc1=O", "118 to 119 °C"),
    ("O=C(CCS)N[C@@H](Cc1ccc(O)c(O)c1)C(=O)O", "89 to 91 °C"),
    ("Cc1ccc(-c2cccc(/C=C/C(=O)Nc3ccc(CN4CCCC(CO)C4)cc3)c2)cc1 (stereo unspecified)", "153 to 154 °C"),
]

Working through the 3 compounds below one at a time, give melting point for each.
1. Fc1ccc(-c2nc[nH]c2-c2cccs2)cc1
2. CCc1nc2cnc3cc(OCC(=O)N4CCOCC4)ccc3c2n1CCOc1ccccc1
3. CCOC(=O)C1=C(O)c2cc3cc(OC)ccc3n2CC1

1: 197 to 198 °C; 2: 190 to 191 °C; 3: 157 to 160 °C
